Origin of measurements: patent US11180474B2

# tested target: UniProt Q9NYK1
# Sequence (Q9NYK1 27-1049): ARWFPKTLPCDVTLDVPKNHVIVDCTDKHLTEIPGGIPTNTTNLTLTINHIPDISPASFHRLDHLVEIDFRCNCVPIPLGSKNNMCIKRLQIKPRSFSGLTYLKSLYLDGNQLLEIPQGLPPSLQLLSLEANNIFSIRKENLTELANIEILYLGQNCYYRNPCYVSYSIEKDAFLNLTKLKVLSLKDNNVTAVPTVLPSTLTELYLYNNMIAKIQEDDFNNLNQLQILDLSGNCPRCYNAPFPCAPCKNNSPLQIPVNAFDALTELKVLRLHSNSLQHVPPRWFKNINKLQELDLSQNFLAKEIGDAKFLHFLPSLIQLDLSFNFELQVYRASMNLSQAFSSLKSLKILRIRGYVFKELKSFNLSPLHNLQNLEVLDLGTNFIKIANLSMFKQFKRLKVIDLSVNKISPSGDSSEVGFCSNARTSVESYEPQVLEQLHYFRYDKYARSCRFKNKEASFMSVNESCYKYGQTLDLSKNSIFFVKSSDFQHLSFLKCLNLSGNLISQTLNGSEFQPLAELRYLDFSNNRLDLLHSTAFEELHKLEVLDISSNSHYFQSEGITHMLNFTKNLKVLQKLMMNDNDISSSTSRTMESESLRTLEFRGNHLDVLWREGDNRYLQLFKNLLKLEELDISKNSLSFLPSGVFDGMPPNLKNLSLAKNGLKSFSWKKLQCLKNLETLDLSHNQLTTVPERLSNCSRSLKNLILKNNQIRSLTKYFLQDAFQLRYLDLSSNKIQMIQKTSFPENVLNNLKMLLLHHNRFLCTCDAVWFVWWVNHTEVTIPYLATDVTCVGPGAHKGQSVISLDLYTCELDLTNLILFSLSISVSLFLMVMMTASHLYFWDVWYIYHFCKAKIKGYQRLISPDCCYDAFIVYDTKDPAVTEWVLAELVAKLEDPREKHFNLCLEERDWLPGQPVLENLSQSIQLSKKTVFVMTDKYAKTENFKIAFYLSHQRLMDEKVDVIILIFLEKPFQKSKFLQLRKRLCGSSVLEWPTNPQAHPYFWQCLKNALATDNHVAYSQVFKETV
# assay summary: TLR7 inhibition reporter assay (HEK-Blue cells, SEAP reporter, gardiquimod stimulation)
# condition details: HEK-Blue cells overexpressing human TLR7, gardiquimod 7.5 μM
readout type: IC50 (nM)

- molecule: "COc1ccc(-c2[nH]c3ccc(C4CCN(C(=O)CN5CCC[C@H](C(=O)N6CCN(C(C)=O)CC6)C5)CC4)cc3c2C(C)C)cc1OC [Example 284]"
  unit abbrev: "nM"
  IC50: 39
- molecule: "CCN(CC)C(=O)C1CCCN(CC(=O)N2CCC(c3ccc4[nH]c(-c5ccc(OC)c(OC)c5)c(CC(F)(F)F)c4c3)CC2)C1 (centres unmarked) [Example 420]"
  unit abbrev: "nM"
  IC50: 66

(P) COc1ccc(-c2[nH]c3ccc(C4CCN(C(=O)CN(C)C)CC4)cc3c2CC(F)F)cc1OC [Example 399]
(Q) COc1ccc(-c2[nH]c3ccc(C4CCN(C(=O)CN(C)CCO)CC4)cc3c2C)cc1OC [Example 408]
Task: Kindly compare P with Q and tell me which has the lower IC50 figure. Provide the label of your selected option as the answer.
Result: P
(P: 106 nM, Q: 898 nM)

(P) CCc1c(-c2ccc(OC)c(OC)c2)[nH]c2ccc(C3CCN(C4CCN(Cc5cc6ccccc6[nH]5)CC4)CC3)cc12 [Example 128]
(Q) COc1ccc(-c2[nH]c3ccc(C4CCN(C(=O)CN5CCC[C@H](C(=O)NC(C)C)C5)CC4)cc3c2C(C)C)cc1OC [Example 285]
Task: For P and Q , which recorded IC50 is lower? Record your answer as the label of the chosen record.
Result: Q
